EXPERIMENTAL SYSTEM: rabbit B2R-green fluorescent protein (B2R-GFP) (Oryctolagus cuniculus, UniProt Q28642)
Construct: expressed in transfected cells
Sequence (Q28642 whole entry): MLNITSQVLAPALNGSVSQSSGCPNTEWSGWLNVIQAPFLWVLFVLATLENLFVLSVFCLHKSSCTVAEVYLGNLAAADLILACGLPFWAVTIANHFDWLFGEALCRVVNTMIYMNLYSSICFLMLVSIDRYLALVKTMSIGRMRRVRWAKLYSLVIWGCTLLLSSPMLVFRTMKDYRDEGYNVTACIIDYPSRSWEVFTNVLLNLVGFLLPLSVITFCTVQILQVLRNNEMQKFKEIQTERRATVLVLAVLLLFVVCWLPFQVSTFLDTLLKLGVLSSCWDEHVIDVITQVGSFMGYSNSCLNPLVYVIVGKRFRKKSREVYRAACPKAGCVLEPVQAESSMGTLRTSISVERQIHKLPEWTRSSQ
ASSAY: [3H]BK binding competition to B2R-GFP stably expressed in intact HEK 293 cells
TEST SETTINGS: log of IC50; 3 nM [3H]BK, 0 °C, with peptidase inhibitors incl. captopril, HEK 293 cells
Procedure: Affinity for the B2R was evaluated using a radioligand binding competition assay performed at 0 °C in the presence of peptidase inhibitors that included captopril ([Houle et al., 2000]). […] Results are presented as mean ± SEM. Radioligand binding data were fitted by non-linear regression to a one-site competition equation using a least-square method (Prism 4.0, GraphPad Software Inc., San Diego, CA, USA) and IC50 values calculated from this procedure. […]
Peptide text beside a SMILES is read from it.
RECORDED ENDPOINT: [3H]BK binding to B2R-GFP log(IC50) ± SE

Q: Any idea what its [3H]BK binding to B2R-GFP log(IC50) ± SE is? The compound is CC(C)C[C@H](NC(=O)[C@H](Cc1c[nH]cn1)NC(=O)[C@H](CCCNC(=N)N)NC(=O)[C@H](Cc1ccccc1)NC(=O)[C@@H]1CCCN1C(=O)[C@H](CO)NC(=O)[C@H](Cc1ccccc1)NC(=O)CNC(=O)[C@@H]1CCCN1C(=O)[C@@H]1CCCN1C(=O)[C@@H](N)CCCNC(=N)N)C(=O)O [BK-His-Leu] (H-RPPGFSPFRHL-OH; N-terminus and C-terminus assumed)
Result: -5.24 ± 0.20

Q: Any idea what its [3H]BK binding to B2R-GFP log(IC50) ± SE is? The compound is N=C(N)NCCC[C@H](NC(=O)[C@H](Cc1ccccc1)NC(=O)[C@@H]1CCCN1C(=O)[C@H](CO)NC(=O)[C@H](Cc1ccccc1)NC(=O)CNC(=O)[C@@H]1CCCN1C(=O)[C@@H]1CCCN1C(=O)[C@@H](N)CCCNC(=N)N)C(=O)N[C@@H](CO)C(=O)N[C@@H](Cc1ccc(O)cc1)C(=O)O [BK-Ser-Tyr] (H-RPPGFSPFRSY-OH; N-terminus and C-terminus assumed)
Result: -5.79 ± 0.13

----------
EXPERIMENTAL SYSTEM: rabbit B2R-green fluorescent protein (B2R-GFP) (Oryctolagus cuniculus, UniProt Q28642)
Construct: expressed in transfected cells
ASSAY: [3H]BK binding competition to B2R-GFP stably expressed in intact HEK 293 cells
TEST SETTINGS: log of IC50; 3 nM [3H]BK, 0 °C, with peptidase inhibitors incl. captopril, HEK 293 cells
Peptide text beside a SMILES is read from it.
Task for the reader: assign each of the following compounds its reported [3H]BK binding to B2R-GFP log(IC50) ± SE.
Quick one: just the number, no unit, thanks!

Q: Any idea what its [3H]BK binding to B2R-GFP log(IC50) ± SE is? The compound is N=C(N)NCCC[C@H](NC(=O)[C@H](Cc1ccccc1)NC(=O)[C@@H]1CCCN1C(=O)[C@H](CO)NC(=O)[C@H](Cc1ccccc1)NC(=O)CNC(=O)[C@@H]1CCCN1C(=O)[C@@H]1CCCN1C(=O)[C@H](CCCNC(=N)N)NC(=O)[C@@H]1CCCN1C(=O)[C@@H](N)CCCNC(=N)N)C(=O)O [Arg-Pro-BK] (H-RPRPPGFSPFR-OH; N-terminus and C-terminus assumed)
Result: -7.61

Q: Any idea what its [3H]BK binding to B2R-GFP log(IC50) ± SE is? The compound is C[C@H](NC(=O)[C@H](CCCNC(=N)N)NC(=O)[C@H](Cc1ccccc1)NC(=O)[C@@H]1CCCN1C(=O)[C@H](CO)NC(=O)[C@H](Cc1ccccc1)NC(=O)CNC(=O)[C@@H]1CCCN1C(=O)[C@@H]1CCCN1C(=O)[C@@H](N)CCCNC(=N)N)C(=O)N1CCC[C@H]1C(=O)O [BK-Ala-Pro] (H-RPPGFSPFRAP-OH; N-terminus and C-terminus assumed)
Result: -5.11

Q: Any idea what its [3H]BK binding to B2R-GFP log(IC50) ± SE is? The compound is N=C(N)NCCC[C@H](NC(=O)[C@H](CCCNC(=N)N)NC(=O)[C@H](Cc1ccccc1)NC(=O)[C@@H]1CCCN1C(=O)[C@H](CO)NC(=O)[C@H](Cc1ccccc1)NC(=O)CNC(=O)[C@@H]1CCCN1C(=O)[C@@H]1CCCN1C(=O)[C@@H](N)CCCNC(=N)N)C(=O)O [BK-Arg] (H-RPPGFSPFRR-OH; N-terminus and C-terminus assumed)
Result: -6.34
